Molecular target: platelet derived growth factor PDGF-BB (UniProt P01127 82-190)
Sequence (P01127 82-190 limits assumed): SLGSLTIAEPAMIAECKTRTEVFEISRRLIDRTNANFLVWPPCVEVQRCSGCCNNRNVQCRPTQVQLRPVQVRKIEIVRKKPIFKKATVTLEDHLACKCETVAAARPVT
Assay: cell-based or functional assay
Positions of bridges follow the written chain, without caps; N, C: chain ends. Non-standard residues stand in square brackets, D forms with d. dAbu = CC[C@@H](N)C(=O)O
property: IC50, p42/Erk2

binder	IC50, p42/Erk2
[dAbu]DGD (designed binder, linker N-C via 3‑aminomethyl‑5‑aminobenzamide; also: four loops joined to But-Calix calix[4]arene scaffold) [GFB-121]	8.5 µM

Proceeding to the next binder to report its IC50, p42/Erk2.
I would be grateful if you could share the reported IC50, p42/Erk2 for GDLD (designed binder, linker N-C via 3‑aminomethyl‑5‑aminobenzamide; also: four loops on But-Calix calix[4]arene scaffold) [GFB-109] .
15 µM
